target: T1, HLA-A*02:01 (human); assay: UV peptide exchange ELISA
T1 construct: monomers captured on streptavidin plates; also called MHC class I
READOUT TYPE: peptide exchange yield

// peptide exchange yield value for SILDRDDIFV : 50 to 75%

// peptide exchange yield value for AAFAGKLLSV : 50 to 75%

// peptide exchange yield value for FLATSGTLAGI : 20 to 50%

// peptide exchange yield value for SLLEQGKEPWMV : 50 to 75%

// peptide exchange yield value for LLDPNVKSIFV : 50 to 75%

// peptide exchange yield value for ALLPDLPAL : 50 to 75%

// peptide exchange yield value for ILLSVPLLVV : 20 to 50%

// peptide exchange yield value for VLFSGALLGL : 20 to 50%

Value source: patent US20170037110A1
